Here, each record is paired with measured apparent KD of MS2 coat protein data.
Test system: MS2 coat protein
Experiment: apparent KD of MS2 coat protein; higher = weaker reporter binding
Conditions: Eterna round: R107; input ligand: none
Enter your answer as a number in nM; do not include the unit.

Example results:
sequence entry	numeric value
CGGUUUGUGAUGGAUACCAGCAGAGUGGCUGUUUAUCCUGACAUGAGGAUCACCCAUGUGUGCCCUUGGCAGCUGUUGUGGGCUG [8.aB]	86.8
UGAUCCUGCAGGGAUACCAGCGCCGCUAGAUAACUAUGCACAUGAGGAUCACCCAUGUAACGCCCUUGGCAGCCCAGCUAAAGGG [Same State Theophylline B GF22]	58.7
AGAGUCUAGUCGGCCGCCACUCAUGUCCAAAGGACAUGAGGAUCACCCAUGUACCUAAGGUACAUGAGGACCGGGACUGGACUCA [Omei Tryp B SS C v5]	24.4
ACAUGAGGAUCACCCAUGUUGCUGACAGAAGGAGCGUGAUUAAGCACAGGUAGGUCGCUGUUGGUAUCGAGCGUUAGCUCGAUAC [SSArg A #8]	32
AUACAUGAGGAUCACCCAUGUGAUGGCCGGCGAGGACCGGUACGGCCGCCACUCGUGAUCCGUCCUGAGAGCAAAGCUCUCAGCA [Macete]	141

Name the reported apparent KD of MS2 coat protein value associated with the sequence AUACAUGAGGAUCACCCAUGUCACACAGAAGGAGCGGCUGUAGAGCCAGGUAGGUCGCUGUACUCAAAAUACUUCAUACUCAUGU [JR_Nu_ExcArginiA_Sub033] 33

====

System: MS2 coat protein
Test: apparent KD of MS2 coat protein; designed switch direction (-1 OFF switch, 1 ON switch): -1; higher = weaker reporter binding
Conditions: input ligand: FMN 200 uM
value type: apparent KD of MS2 coat protein (µM)
Entry rule: numbers only, all in µM.

Look up apparent KD of MS2 coat protein: ACAUGAGGAUCACCCAUGUCAGGCGGGUCCUCUCCGGCUGUUGAGGAUAUAGUCCGGUAUCCGCGCUAGAAGGUGAGGGCCGGC [Aenatbe mod 18] (Eterna round: R96, puzzle: Exclusion NG 3) 0.0181

Form field: reported apparent KD of MS2 coat protein of GCCUUAUCUGUCAGGAUAUACAAUAAAAUAAUUAAGUAGAAGGGACAUGAGGAUCACCCAUGUACAUUACAUUG [alecazam26] (Eterna round: R97, puzzle: Brourd's mod of Exclusion 4) 0.0674

Entry CGGCAAAGGUAGGAUAUGCUAGACGAGAGUCUAGCAGAAGGACCUACAUGAGGAUCACCCAUGUGUCCAAGCCG [Mat - Exclusion 6 - Eli Mod - D20] (Eterna round: R97, puzzle: Exclusion 6) has what apparent KD of MS2 coat protein? 0.032

Data request, read-out apparent KD of MS2 coat protein, for GCACUGCGAGGAUAUACAUGAGGAUCACCCAUGUGUCGGCAGACAUGUUAUUUCUAAUGUAGAAGGCGCGUAAA [JR_Ex3_Sub002] (Eterna round: R97, puzzle: Exclusion 3) 0.34

Tell me the measured apparent KD of MS2 coat protein of UAUUAGCAAGUAAGAUCCCACAUGAGGAUCACCCAUGUGCUCGUCAUAUAACGUACUGUGAGGAAACUCACGGUACG [Sensor-V1 #84] (Eterna round: R97, puzzle: Sensor, turn-off variant 1) , please. 0.085

====

Tested on: K4 kissing-loop RNA reporter
Assay: apparent KD of K4 kissing-loop reporter; higher = weaker reporter binding
Details: Eterna round: R107; input ligand: arginine 13.2 mM
Below, each entry is listed with its recorded apparent KD of K4 kissing-loop reporter.
Give the quantity in nM, number only.

Some solved entries appear below for comparison.
sequence entry	numeric value
AAGUGAUGUUGUAGUGAUGUUGUGAUGUUGCAGGAUAUAUAGUGAUGUAGAAGGGUAAGUACUGAUGUUGUUAGUGAGUGAUGUU [wwzrrmullin]	49.8
AGGCGGCAUAAUUGACUGAAAAGAAAUUAACGAGGACCGGUACGGCCGCCACUCGAACACCAGUGAUGUUGGUAUGGGAUAAUUU [Exclusion Tryptophan A GF 18]	62.7

Could you share which apparent KD of K4 kissing-loop reporter value was measured for UCGCAAAAGUCGGCCGCCACUCCGGGCCCUAUAAAUGGGCGCAGUGAUGUUGCGGCUAGGCCUCUGAGGACCGGGACUUUGAAGA [Esesbior] ? 25

====

# apparent KD of MS2 coat protein per record follows
Tested on: MS2 coat protein
Experiment: apparent KD of MS2 coat protein; designed switch direction (-1 OFF switch, 1 ON switch): -1; higher = weaker reporter binding
Settings: input ligand: microRNA oligo, concentration not stated
The reply should contain only the number, in nM.

Solved cases below.
sequence entry	assay system	value type	measure unit	numeric value
UGUUGUUACGCAGGAUAUGGCCAACAGGCCCUAGGAUAUCCGAAAGGAGAAGGAGCGCCAACAGGCGAGAAGGGCGGGUUAACA [pwkr exNG2 2xF7 2xFMN.14] (Eterna round: R96, puzzle: Exclusion NG 2)	MS2 coat protein	apparent KD of MS2 coat protein	nM	55.7
CAAUAUUACUGAGGAUAUCCUAGUGUAUUUCAGGGAGAAGGCGGACUCAACAUGAGGAUCACCCAUGUAAGACGGGUACUAGAU [Ex NG1 #17] (Eterna round: R96, puzzle: Exclusion NG 1)	MS2 coat protein	apparent KD of MS2 coat protein	nM	42.7
AGCUGUGGCCGAGGAUAUCUAAUAAUCCCAACCGAAAUAUAAUCGGACAUGAGGAUCACCCAUGUAGAGAAGGCGGUCUCAGCA [Eli eng2 - 066] (Eterna round: R96, puzzle: Exclusion NG 2)	MS2 coat protein	apparent KD of MS2 coat protein	nM	96.6
GCACGGAGUGUAGGAUAUCUGUGCGAUUAGCUCAGAGAAGGACACAUGAGGAUCACCCAUGUGUUCCUCGGAAACGAACCGUGC [Eli exng1 - 051] (Eterna round: R96, puzzle: Exclusion NG 1)	MS2 coat protein	apparent KD of MS2 coat protein	nM	10.9

Proceed to the following item.
apparent KD of MS2 coat protein lookup needed for UUCUUUAUACGAGGAUAUCAUACAUGAGGAUCACCCAUGUAACUGGGUCUAUUUUUAUAUAAUAUUGAGAAGGCGUUUUGCUAU [JR_ExcNG2_Sub071] (Eterna round: R96, puzzle: Exclusion NG 2) , thanks. 31.1

====

Tested on: K4 kissing-loop RNA reporter
Assay: apparent KD of K4 kissing-loop reporter; higher = weaker reporter binding
Conditions: Eterna round: R107; input ligand: arginine 13.2 mM
value type: apparent KD of K4 kissing-loop reporter (nM)
Dear colleague, please return just the value in nM, with no unit written.

sequence entry	value type	numeric value
CGCAGUGAUGUUGCUAUUAUUCUUGAUUAACGAGGACCGGUACGGCCGCCACUCGAUUUCUAUCUAAUCCAGUGUUUUGUUGAGU [JR_ExcTryptoA_Sub002]	apparent KD of K4 kissing-loop reporter	422
AGACGAGAUGAAGGAUAUGCGGACAAAGUGAUGUUUUGUCCGAAAGUAGGCAGUAAUAUCGAAAAUGCAGAAGGUCAAGAACAUA [theeternabot_exclusion_KL_FMN_B_36]	apparent KD of K4 kissing-loop reporter	173

Pending sequence:
Could you tell me which apparent KD of K4 kissing-loop reporter is on file for AUUAAUUUCAGAGGAUAUCGUUAUUUUUUUUAUUUUAUUCAUUUAUGCAGUGAUGUUGCUAUUAUUCGAGAAGGCUGAUUUAUAA [JR_ExcFMNB_Sub005] ? 126

====

Recorded apparent KD of MS2 coat protein, one value per entry.
Tested on: MS2 coat protein
Test: apparent KD of MS2 coat protein; designed switch direction (-1 OFF switch, 1 ON switch): 1; higher = weaker reporter binding
Details: input ligand: FMN 200 uM
Note: state the figure and append the unit.

sequence entry	assay system	apparent KD of MS2 coat protein
GUGGUGUAGAUACAGGAUAUGUUGCUCGUAACAUGAGGAUCACCCAUGUAUCUAUGAGAAUAAAUGCAGAAGGGUGCACACCACU [Mat - Same State 2 - Mod of UCT - D74] (Eterna round: R96, puzzle: Same State 2)	MS2 coat protein	26.1 nM

So what's the measured apparent KD of MS2 coat protein for this one? CUGAGAAGUCAAGGAUAUCACGUCGAUUAGACGUGAGAAGGUGAUCAUUACAUGAGGAUCACCCAUGUGUUACAUGGAACUCAG [Brourd's SSNG1/1-A2 mod 7] (Eterna round: R96, puzzle: Same State NG 1) 672 nM

====

Measured apparent KD of K4 kissing-loop reporter by item
Test system: K4 kissing-loop RNA reporter;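 further: bound reporter read as fluorescence of individual clusters on recovered sequencing chips by microscopy, with normalized cluster intensities fitted with a binding model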
Test: apparent KD of K4 kissing-loop reporter; higher = weaker reporter binding
Conditions: Eterna round: R107; input ligand: FMN 200 uM
Give the number; nM is assumed, so skip it.

Illustrative cases are given below, each with its answer.
sequence entry	measure unit	apparent KD of K4 kissing-loop reporter
CCAUCGCUAUUCGAUACCAGCUCCUUAGUGAUGUUAAGGUUUUACCCUCUGUAGGAGGGAAGCCCUUGGCAGCGAGUAGUGAUGG [#03 K4 Theophylline B Same State]	nM	1270
AGUGUUAGGUUAGAUACCAGCCGUCUGUAGAUAAUCCUCAGACCGCCAGUGAUGUUGGCAGGCCCUUGGCAGCUAACAGAACAGA [Orbediqu]	nM	238
AAGUGAUGUUGUAGUGAUGUUGUGAUGUUGCAGGAUAUAUAGUGAUGUAGAAGGGUAAGUACUGAUGUUGUUAGUGAGUGAUGUU [wwzrrmullin]	nM	111

Field request: apparent KD of K4 kissing-loop reporter | item: UUGGACCUUAGCCUCAAUAGAACUUUGUUACGAGGACCGGUACGGCCGCCACUCGUCGGGCUCCGAUAGCCAGUGAUGUUGGCAA [theeternabot_sameState_KL_Trp_A_16] 429

Which apparent KD of K4 kissing-loop reporter is listed for AUUUUGGUUUAGAGUGAUGUUCCUUGUAUUCGAGGACCGGUACGGCCGCCACUCGAAUAGAAAAGAAAAGAAAUGUUUGAUGUUU [BDazzled - #6 SS Tryptophan A] ? 551

Could you share which apparent KD of K4 kissing-loop reporter value was measured for UCGCCAAAGUCGGCCGCCACUCCGGGCCCUAUAAAUGGGCGCAGUGAUGUUGCGGCUAGGCCUCUGAGGACCGGGACUUUGUAAA [Tiesgeza] ? 119

// apparent KD of K4 kissing-loop reporter lookup, key: UGAUACCAGACGGCCGCCACUGCGCCAGUCAAUGACUGAGCGCGGUGGCGCUCAGUGAUGUUGUGCAGGACCGGGUCUGGUAUCU [Mod of Eli's TrypBX 8 v6] 476

This collection of values is drawn from the supplement of paper PMC9170038.
